# target: AchP (Acholeplasma laidlawii, UniProt A9NH41)
# Sequence (A9NH41 entry or part of it): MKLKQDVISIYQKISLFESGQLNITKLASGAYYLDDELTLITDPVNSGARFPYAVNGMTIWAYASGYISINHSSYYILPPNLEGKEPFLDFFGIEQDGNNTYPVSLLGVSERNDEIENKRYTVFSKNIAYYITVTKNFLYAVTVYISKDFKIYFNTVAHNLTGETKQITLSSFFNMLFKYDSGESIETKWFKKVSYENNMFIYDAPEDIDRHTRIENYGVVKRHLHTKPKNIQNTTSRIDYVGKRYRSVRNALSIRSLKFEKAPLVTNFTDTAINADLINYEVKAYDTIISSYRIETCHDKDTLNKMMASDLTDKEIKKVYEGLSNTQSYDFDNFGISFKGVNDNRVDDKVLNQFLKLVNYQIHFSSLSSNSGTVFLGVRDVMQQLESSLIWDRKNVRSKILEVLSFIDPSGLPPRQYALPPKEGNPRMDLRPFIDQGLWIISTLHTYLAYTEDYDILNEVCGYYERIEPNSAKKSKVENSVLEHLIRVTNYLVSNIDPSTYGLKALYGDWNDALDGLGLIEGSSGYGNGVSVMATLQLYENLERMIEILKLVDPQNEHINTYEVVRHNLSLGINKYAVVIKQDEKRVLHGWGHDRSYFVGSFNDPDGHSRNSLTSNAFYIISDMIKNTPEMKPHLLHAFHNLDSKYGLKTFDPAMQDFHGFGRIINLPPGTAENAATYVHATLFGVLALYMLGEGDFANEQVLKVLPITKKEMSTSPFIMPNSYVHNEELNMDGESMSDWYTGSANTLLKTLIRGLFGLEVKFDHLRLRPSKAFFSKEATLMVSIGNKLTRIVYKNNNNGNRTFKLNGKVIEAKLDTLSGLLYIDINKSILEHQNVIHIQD
# method.summary: Purified AchP donor and acceptor specificity screen
# Format: biochemical
# particulars: Glc1-P as donor; 3 h room temperature; absorbance 655 nm
readout.name: AchP activity with acceptor

compound	AchP activity with acceptor
N[C@H]1C(O)O[C@H](CO)[C@@H](O)[C@@H]1O (stereo partly shown)	no activity
CC(=O)NC1C(O)[C@@H](O)C(CO)O[C@@H]1O (stereo partly shown)	active
OC[C@H]1O[C@@H](O[C@H]2[C@H](O)[C@@H](CO)OC(O)[C@@H]2O)[C@H](O)[C@@H](O)[C@@H]1O (stereo partly shown)	no activity
CC(=O)NC1C(O)[C@H](O)C(CO)O[C@H]1O (stereo partly shown)	active
N[C@H]1C(O)O[C@H](CO)[C@H](O)[C@@H]1O (stereo partly shown)	no activity
CC(=O)N[C@H]1[C@H](O[C@H]2[C@H](O)[C@@H](NC(C)=O)C(O)O[C@@H]2CO)O[C@H](CO)[C@@H](O)[C@@H]1O (stereo partly shown)	active

With AchP (Acholeplasma laidlawii, UniProt A9NH41) as the test system, provide measured AchP activity with acceptor for this compound: CC(=O)N[C@H]1[C@H](Oc2ccc([N+](=O)[O-])cc2)O[C@H](CO)[C@@H](O)[C@@H]1O active
